# SYSTEM UNDER TEST: MvfR protein (MvfRC87) (Pseudomonas aeruginosa)
# Construct: The MvfRC87 protein purified as in Xiao et. al., 2006; made in house
# Sequence (Q9I4X0 87-332): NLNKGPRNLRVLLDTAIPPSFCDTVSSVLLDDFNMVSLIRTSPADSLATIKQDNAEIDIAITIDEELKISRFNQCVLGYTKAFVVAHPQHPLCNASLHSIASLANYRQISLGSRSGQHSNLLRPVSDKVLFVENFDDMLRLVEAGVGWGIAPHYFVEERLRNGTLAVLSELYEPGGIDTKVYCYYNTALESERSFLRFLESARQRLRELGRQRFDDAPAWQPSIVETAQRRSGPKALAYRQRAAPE
# Assay type: binding
# RECORDED CONDITIONS: SPR; Concentration 1.00E-07 M
// assign condition met if Response Unit (RU) falls strictly below 7 RU, else condition not met (ties count as condition not met)

> print(dat)
                                   compound              label
1   Cc1cc(F)ccc1NCC(=O)Nc1ccc(C#N)cc1 [M17]      condition met
2  N#Cc1ccc(NC(=O)CC(=O)Nc2ccc(C(F)(F)F)cc2)cc1 [D69]  condition not met
3  N#Cc1ccc(NC(=O)CC(=O)Nc2ccc(C#N)cc2)cc1 [D43]  condition not met
4  N#Cc1ccc(NC(=O)C(F)C(=O)Nc2ccc(Oc3ccccc3)cc2)cc1 (centres unmarked) [D88]      condition met
